# experimental_details: Stability in cryopreserved hepatocytes, dog
value_kind: Trep Concentration (μM) 15 min (µM)
Numbers only, in µM.

Check out these entries, answers already filled in.
molecule: CCCCCC(CCC1C(O)CC2Cc3c(cccc3OCC(=O)O)CC21)Oc1ccccc1C(=O)O (stereo not drawn) [LVI]
units_symbol: µM
Trep Concentration (μM) 15 min: 0.005

molecule: CCCCC[C@H]1CC[C@@H]2[C@H]3Cc4cccc(OCC(=O)O)c4C[C@H]3C[C@H]2OC(=O)O1 [XXIV]
units_symbol: µM
Trep Concentration (μM) 15 min: 0.461

molecule: CCCCCC(CCC1C(O)CC2Cc3c(cccc3OCC(=O)O)CC21)OCC (stereo not drawn) [XLVII]
units_symbol: µM
Trep Concentration (μM) 15 min: 0

molecule: CCCCCC(CCC1C(O)CC2Cc3c(cccc3OCC(=O)O)CC21)OC(=O)C1CCCN1 (stereo not drawn) [XXXVI]
units_symbol: µM
Trep Concentration (μM) 15 min: 0.229

molecule: CCCCCC(CCC1C(O)CC2Cc3c(cccc3OCC(=O)O)CC21)OC (stereo not drawn) [XLV]
units_symbol: µM
Trep Concentration (μM) 15 min: 0

Here's the next entry for you.
Please report the recorded Trep Concentration (μM) 15 min for CCCCCC(CCC1C(O)CC2Cc3c(cccc3OCC(=O)O)CC21)OC(=O)COc1ccc(OC(F)(F)F)cc1 (stereo not drawn) [LXIV] . 0.466

###

# experimental_details: Stability in cryopreserved hepatocytes, rat
Assign Trep Concentration (μM) 0 min to each entry below.
Give bare numbers, in µM.

See these solved cases before continuing.
molecule: CCCCCC(CCC1C(O)CC2Cc3c(cccc3OCC(=O)O)CC21)OC(=O)COc1ccc(OC(F)(F)F)cc1 (stereo not drawn)
Trep Concentration (μM) 0 min (µM): 0.0456

molecule: CCCCCC(CCC1C(O)CC2Cc3c(cccc3OCC(=O)O)CC21)OC(=O)c1cccc(O)c1 (stereo not drawn)
Trep Concentration (μM) 0 min (µM): 0

molecule: CCCCCC(CCC1C(O)CC2Cc3c(cccc3OCC(=O)O)CC21)OC(=O)N1CCC(O)CC1 (stereo not drawn)
Trep Concentration (μM) 0 min (µM): 0

molecule: CCCCCC(CCC1C(O)CC2Cc3c(cccc3OCC(=O)O)CC21)OC(=O)c1ccc(C(F)(F)F)cc1 (stereo not drawn)
Trep Concentration (μM) 0 min (µM): 0.00378

molecule: CCCCCC(CCC1C(O)CC2Cc3c(cccc3OCC(=O)O)CC21)OP(=O)(O)O (stereo not drawn)
Trep Concentration (μM) 0 min (µM): 0.128

Hi team, please reply with Trep Concentration (μM) 0 min for each item in this list.
1. CCCCCC1CCC2C(CC3Cc4c(cccc4OCC(=O)O)CC32)OP(=O)(Oc2ccccc2)O1 (mixture of isomers)
2. CCCCCC(CCC1C(O)CC2Cc3c(cccc3OCC(=O)O)CC21)OC(=O)c1ccc(O)cc1 (stereo not drawn)
3. CCCCCC(CCC1C(O)CC2Cc3c(cccc3OCC(=O)O)CC21)OC(=O)COc1ccc(O)cc1 (stereo not drawn)
4. CCCCCC(CCC1C(O)CC2Cc3c(cccc3OCC(=O)O)CC21)OC (stereo not drawn)
5. CCCCCC(CCC1C(O)CC2Cc3c(cccc3OCC(=O)O)CC21)OC(=O)c1ccc(C)cc1 (stereo not drawn)

[0, 0, 0.0862, 0, 0]

###

# experimental_details: Stability in cryopreserved hepatocytes, dog
# condition_info: dog
value_kind: AUC (µmol·min/L)
Numbers only, in µmol·min/L.

Observe how each entry below is paired with its result.
compound: CCCCCC1CCC2C(CC3Cc4c(cccc4OCC(=O)O)CC32)OP(=O)(Oc2ccccc2)O1 (mixture of isomers)
AUC, µmol·min/L: 0.10
//
compound: CCCCCC(CCC1C(O)CC2Cc3c(cccc3OCC(=O)O)CC21)OC(=O)OC (stereo not shown)
AUC, µmol·min/L: 47.99
//
compound: CCCCCC(CCC1C(O)CC2Cc3c(cccc3OCC(=O)O)CC21)OC(=O)CCC(=O)O (stereo not shown)
AUC, µmol·min/L: 14.60
//
compound: CCCCCC(CCC1C(O)CC2Cc3c(cccc3OCC(=O)O)CC21)Oc1ccccc1C(=O)O (stereo not shown)
AUC, µmol·min/L: 0.00
//
compound: CCCCCC(CCC1C(O)CC2Cc3c(cccc3OCC(=O)O)CC21)OC(=O)C12CC3CC(CC(C3)C1)C2 (stereo not shown)
AUC, µmol·min/L: 28.28
//
compound: CCCCCC(CCC1C(O)CC2Cc3c(cccc3OCC(=O)O)CC21)OC(=O)NCCO (stereo not shown)
AUC, µmol·min/L: 0.74
//
compound: CCCCCC(CCC1C(OC(=O)CC)CC2Cc3c(cccc3OCC(=O)O)CC21)OC(=O)CC (stereo not shown) [Prodrug LXX, treprostinil dipropionate]
AUC, µmol·min/L: 61.54
//
compound: CCCCCC(CCC1C(O)CC2Cc3c(cccc3OCC(=O)O)CC21)OC(=O)NC (stereo not shown)
AUC, µmol·min/L: 0.00
//
compound: CCCCCC(CCC1C(O)CC2Cc3c(cccc3OCC(=O)O)CC21)OC(=O)c1ccc(O)c(O)c1 (stereo not shown)
AUC, µmol·min/L: 0.16
//
compound: CCCCCC(CCC1C(O)CC2Cc3c(cccc3OCC(=O)O)CC21)OCCN1CCOCC1 (stereo not shown)
AUC, µmol·min/L: 0.63

// each listed compound needs a value for AUC
1. CCCCCC(CCC1C(O)CC2Cc3c(cccc3OCC(=O)O)CC21)OC(=O)COc1ccc(O)cc1 (stereo not shown)
2. CCCCCC(CCC1C(O)CC2Cc3c(cccc3OCC(=O)O)CC21)OC(=O)c1ccc(C(F)(F)F)cc1 (stereo not shown)
3. CCCCCC(CCC1C(O)CC2Cc3c(cccc3OCC(=O)O)CC21)OC(=O)CC (stereo not shown)

30.24
13.34
71.21

###

Task for the reader: assign each of the following molecules its reported Trep Concentration (μM) 120 min.
# experimental_details: Stability in cryopreserved hepatocytes, human
# Description: Mixed-gender human cryopreserved hepatocytes, male Sprague-Dawley rat cryopreserved hepatocytes, and male Beagle dog cryopreserved hepatocytes were purchased from XenoTech. […] An aliquot of the supernatant was then diluted with water and analyzed by LC-MS/MS against calibration standards prepared in a matched matrix. […] All test article samples were analyzed for the dosed prodrugs as well as the drug, treprostinil. […]
One number for each entry, in µM.

The examples below pair each entry with its known result.
molecule: CCCCCC(CCC1C(O)CC2Cc3c(cccc3OCC(=O)O)CC21)OC (stereo not shown) [XLV]
Trep Concentration (μM) 120 min / µM: 0.0734
//
molecule: CCCCCC(CCC1C(O)CC2Cc3c(cccc3OCC(=O)O)CC21)OC(=O)CC (stereo not shown) [LV]
Trep Concentration (μM) 120 min / µM: 0.527
//
molecule: CCCCCC(CCC1C(O)CC2Cc3c(cccc3OCC(=O)O)CC21)OC(C)=O (stereo not shown) [XLIII]
Trep Concentration (μM) 120 min / µM: 0.507

Could you now consider this next molecule?
Recorded Trep Concentration (μM) 120 min for CCCCCC(CCC1C(O)CC2Cc3c(cccc3OCC(=O)O)CC21)OC(=O)c1ccc(O)c(O)c1 (stereo not shown) [LXVI] , please? 0.0237

###

# experimental_details: Stability in liver microsomes, human
value_kind: Trep Concentration 30 min (µM)
Numbers only, in µM.

These solved cases illustrate the format of a correct answer.
compound: CCCCCC(CCC1C(O)CC2Cc3c(cccc3OCC(=O)O)CC21)OC(=O)c1ccc(C(F)(F)F)cc1 (stereo not shown) [LXII]
units_symbol: µM
Trep Concentration 30 min: 0.2
--
compound: CCCCCC(CCC1C(O)CC2Cc3c(cccc3OCC(=O)O)CC21)OC(=O)OCC(=O)O (stereo not shown) [XXXIX]
units_symbol: µM
Trep Concentration 30 min: 0
--
compound: CCCCC[C@@H](CC[C@@H]1[C@H]2Cc3cccc(OCC(=O)O)c3C[C@H]2C[C@H]1O)OC(=O)[C@@H](N)C(C)C [XXIX]
units_symbol: µM
Trep Concentration 30 min: 0.0173
--
compound: CCCCCC(CCC1C(O)CC2Cc3c(cccc3OCC(=O)O)CC21)OC(=O)CCC(=O)N1CCOCC1 (stereo not shown) [XXXIII]
units_symbol: µM
Trep Concentration 30 min: 0
--
compound: CCCCCC(CCC1C(O)CC2Cc3c(cccc3OCC(=O)O)CC21)OCCC (stereo not shown) [XLVI]
units_symbol: µM
Trep Concentration 30 min: 0.0656

Give Trep Concentration 30 min for each of the items listed below.
1. CCCCCC(CCC1C(O)CC2Cc3c(cccc3OCC(=O)O)CC21)OC(=O)COc1ccc(OC(F)(F)F)cc1 (stereo not shown) [LXIV]
2. CCCCCC(CCC1C(O)CC2Cc3c(cccc3OCC(=O)O)CC21)OC (stereo not shown) [XLV]
3. CCCCCC(CCC1C(O)CC2Cc3c(cccc3OCC(=O)O)CC21)OC(=O)C1CCCN1 (stereo not shown) [XXXVI]
4. CCCCCC(CCC1C(O)CC2Cc3c(cccc3OCC(=O)O)CC21)OC(=O)NCC(=O)O (stereo not shown) [XXXVIII]
5. CCCCCC(CCC1C(O)CC2Cc3c(cccc3OCC(=O)O)CC21)OC(=O)C(N)CCCCN (stereo not shown) [XXXV]
6. CCCCCC(CCC1C(O)CC2Cc3c(cccc3OCC(=O)O)CC21)OC(=O)CC (stereo not shown) [LV]
7. CCCCCC(CCC1C(O)CC2Cc3c(cccc3OCC(=O)O)CC21)OC(=O)N1CCCCC1 (stereo not shown) [XIX]

0.596
0.21
0.379
0
0.0352
0.736
0.018

Field request: Trep Concentration 30 min | item: CCCCCC(O)CCC1C(OC)CC2Cc3c(cccc3OCC(=O)O)CC21 (stereo not shown) [LIII] 0.0459
